- Test system: BCL2 G101V
- protocol_text: TR-FRET competitive binding assay, BCL2 G101V
- Parameters: species or system human
- reported_conditions: ratio Ki BCL2 G101V / Ki BCL2 WT
parameter: TR_FRET EKI G101V/WT selectivty ratio

P. Cc1c(N(C(=O)c2cc(-c3cc4c(cc3C(=O)N3Cc5ccccc5C[C@H]3CN3CCCCC3)CN(C(=O)Cc3ccc(OCC(C)N5CCOCC5)cc3)CC4)n(C)c2C)c2ccc(O)cc2)cc(C#N)n1C (single isomer, unassigned) [Example 128]
Q. Cc1c(C(=O)N(c2ccc(O)cc2)c2cc(C#N)n(C(F)F)c2C)cc(-c2cc3c(cc2C(=O)N2Cc4ccccc4C[C@H]2CN2CCCCC2)CN(C(=O)Cc2ccc(OCCN4CCOC(C)C4)cc2F)CC3)n1C (single isomer, unassigned)
For P and Q , which recorded TR_FRET EKI G101V/WT selectivty ratio is lower? The response must carry the label of the picked entry.
Q
